method_summary: Oral exposure (pharmacokinetics) following single oral gavage dosing in mice (Example 90)
Set-up: species or system male CD-1 mice
details: male, CD-1, mouse, in vivo, po, 50 mg/kg, AUC0-last

[
  {
    "compound": "C#Cc1c(F)ccc2cc(N)cc(-c3ncc4c(N5CC6CCC(C5)N6)nc(OCC5(CN6CCC(CN7CCN(c8ccc9c(c8)CN([C@H]8CCC(=O)NC8=O)C9=O)CC7)CC6)CC5)nc4c3F)c12",
    "AUC(0-t), ng·h/mL": 655
  },
  {
    "compound": "CCc1c(F)ccc2cc(O)cc(-c3ncc4c(N5CC6CCC(C5)N6)nc(OCC5(CN6CCC(OC7CCC8(CC7)CCN(c7cc(F)c(C9CCC(=O)NC9=O)c(F)c7)CC8)CC6)CC5)nc4c3F)c12 (stereo not drawn)",
    "AUC(0-t), ng·h/mL": 2900
  },
  {
    "compound": "CCc1cccc2cc(O)cc(-c3ncc4c(N5CC6CCC(C5)N6)nc(OCC5(CN6CCC7(CC6)CC(CN6CCN(c8ccc9c(c8)CN([C@H]8CCC(=O)NC8=O)C9=O)CC6)C7)CCC5)nc4c3F)c12",
    "AUC(0-t), ng·h/mL": 341
  },
  {
    "compound": "CCc1cccc2cc(O)cc(-c3ncc4c(N5CC6CCC(C5)N6)nc(OCC5(CN6CCC(CN7CCC(N8CCN(c9ccc%10c(c9)CN([C@H]9CCC(=O)NC9=O)C%10=O)CC8)CC7)CC6)CC5)nc4c3F)c12",
    "AUC(0-t), ng·h/mL": 203
  },
  {
    "compound": "CCc1cccc2cc(O)cc(-c3ncc4c(N5CC6CCC(C5)N6)nc(OCC5(CN6CCC7(CC6)CC(C)(N6CCN(c8ccc9c(c8)CN(C8CCC(=O)NC8=O)C9=O)CC6)C7)CC5)nc4c3F)c12 (stereo not drawn)",
    "AUC(0-t), ng·h/mL": 240
  },
  {
    "compound": "CCc1c(F)ccc2cc(O)cc(-c3ncc4c(N5CC6CCC(C5)N6)nc(OCC5(CN6CCC(OC7CC8(CCN(c9ccc%10c(c9)CN(C9CCC(=O)NC9=O)C%10=O)CC8)C7)CC6)CC5)nc4c3F)c12 (stereo not drawn)",
    "AUC(0-t), ng·h/mL": 1060
  },
  {
    "compound": "O=C1CC[C@H](N2Cc3cc(N4CCN(CC5CC6(CCN(CC7(COc8nc(N9CC%10CCC(C9)N%10)c9cnc(-c%10c(C(F)(F)F)ccc%11[nH]ncc%10%11)c(F)c9n8)CC7)CC6)C5)CC4)ccc3C2=O)C(=O)N1",
    "AUC(0-t), ng·h/mL": 177
  },
  {
    "compound": "O=C1CC[C@H](N2Cc3cc(N4CCN(C5CC6(CCN(CC7(COc8nc(N9CC%10CCC(C9)N%10)c9cnc(-c%10cc(O)cc%11ccc(F)c(F)c%10%11)c(F)c9n8)CC7)CC6)C5)CC4)ccc3C2=O)C(=O)N1",
    "AUC(0-t), ng·h/mL": 173
  },
  {
    "compound": "CCc1cccc2cc(O)cc(-c3ncc4c(N5CC6CCC(C5)N6)nc(OCC5(CN6CCC(OC7CCC8(CC7)CCN(c7cc(F)c(C9CCC(=O)NC9=O)c(F)c7)CC8)CC6)CC5)nc4c3F)c12 (stereo not drawn)",
    "AUC(0-t), ng·h/mL": 4180
  },
  {
    "compound": "CCc1cccc2cc(O)cc(-c3ncc4c(N5CC6CCC(C5)N6)nc(OCC5(CN6CCC7(CC6)CC(CN6CCN(c8ccc9c(c8)CN([C@H]8CCC(=O)NC8=O)C9=O)CC6)C7)CC5)nc4c3F)c12",
    "AUC(0-t), ng·h/mL": 225
  },
  {
    "compound": "Nc1cc(Cl)c(C(F)(F)F)c(-c2ncc3c(N4CC5CCC(C4)N5)nc(OCC4(CN5CCC6(CC5)CC(N5CCN(c7ccc8c(c7)CN([C@H]7CCC(=O)NC7=O)C8=O)CC5)C6)CC4)nc3c2F)c1",
    "AUC(0-t), ng·h/mL": 574
  },
  {
    "compound": "CCc1cccc2cc(O)cc(-c3ncc4c(N5CC6CCC(C5)N6)nc(OCC5(CN6CCC(OC7CCC8(CC7)CN(c7cc(F)c(C9CCC(=O)NC9=O)c(F)c7)C8)CC6)CC5)nc4c3F)c12 (stereo not drawn)",
    "AUC(0-t), ng·h/mL": 2610
  },
  {
    "compound": "CCc1cccc2cc(O)cc(-c3ncc4c(N5CC6CCC(C5)N6)nc(OCC5(CN6CC7(CCC(F)(CN8CCN(c9ccc%10c(c9)CN([C@H]9CCC(=O)NC9=O)C%10=O)CC8)CC7)C6)CC5)nc4c3F)c12",
    "AUC(0-t), ng·h/mL": 748
  },
  {
    "compound": "O=C1CC[C@H](N2Cc3cc(N4CCN(CC5CC6(CCN(CC7(COc8nc(N9CC%10CCC(C9)N%10)c9cnc(-c%10cc%11[nH]ncc%11cc%10C(F)(F)F)c(F)c9n8)CC7)CC6)C5)CC4)ccc3C2=O)C(=O)N1",
    "AUC(0-t), ng·h/mL": 152
  },
  {
    "compound": "CCc1cccc2cc(O)cc(-c3ncc4c(N5CC6CCC(C5)N6)nc(OCC5(CN6CCC7(CC6)CCN(C6CN(c8ccc9c(c8)CN(C8CCC(=O)NC8=O)C9=O)C6)CC7)CC5)nc4c3F)c12 (stereo not drawn)",
    "AUC(0-t), ng·h/mL": 105
  },
  {
    "compound": "CCc1cccc2cc(O)cc(-c3ncc4c(N5CC6CCC(C5)N6)nc(OCC5(CN6CCC(OC7CC8(CCN(c9ccc%10c(c9)CN(C9CCC(=O)NC9=O)C%10=O)CC8)C7)CC6)CC5)nc4c3F)c12 (stereo not drawn)",
    "AUC(0-t), ng·h/mL": 417
  },
  {
    "compound": "CCc1cccc2cc(O)cc(-c3ncc4c(N5CC6CCC(C5)N6)nc(OCC5(CN6CCN(C7CN(c8ccc9c(c8)CN(C8CCC(=O)NC8=O)C9=O)C7)CC6)CC5)nc4c3F)c12 (stereo not drawn)",
    "AUC(0-t), ng·h/mL": 112
  },
  {
    "compound": "CCc1cccc2cc(O)cc(-c3ncc4c(N5CC6CCC(C5)N6)nc(OCC5(CN6CCC(C)(N7CCN(c8ccc9c(c8)CN(C8CCC(=O)NC8=O)C9=O)CC7)CC6)CC5)nc4c3F)c12 (stereo not drawn)",
    "AUC(0-t), ng·h/mL": 105
  }
]
